Overview of reported Efficacy in % of the untreated control across a group of compounds:
tested on: Plasmopara viticola; test: activity against peronospora of grapevines caused by Plasmopara viticola, protective application; assay type: in vivo; conditions: individual active compound, 16 ppm in the spray liquor, potted vines Müller-Thurgau, untreated control 71% infection
Enter your answer as a number in %; do not include the unit.

COMPOUND: CC1CCN(c2c(-c3c(F)cccc3Cl)c(Cl)nc3ncnn23)CC1 [comparative compound A]
ASSAY_TARGET: Plasmopara viticola
SCALE_UNIT: %
Efficacy in % of the untreated control: 15
--
COMPOUND: CC1(C)CCC(Cc2ccc(Cl)cc2)C1(O)Cn1cncn1 (stereo not shown) [II (metconazole)]
ASSAY_TARGET: Plasmopara viticola
SCALE_UNIT: %
Efficacy in % of the untreated control: 1
--
COMPOUND: C[C@H](Nc1c(-c2c(F)cc(F)cc2F)c(Cl)nc2ncnn12)C(F)(F)F [comparative compound B]
ASSAY_TARGET: Plasmopara viticola
SCALE_UNIT: %
Efficacy in % of the untreated control: 29

We next turn to a different compound, shown below.
Req: What measured Efficacy in % of the untreated control goes with CC1CCN(c2c(-c3c(F)cc(F)cc3F)c(Cl)nc3ncnn23)CC1 [I] ?
Resp: 44

# credit: patent US20070054927A1
